Test target: Alpha-bungarotoxin (Bungarus multicinctus)
Procedure text: alpha-bungarotoxin binders on microarray, profiling panel, artefact control for SMM control protein annotation, biochemical, small-molecule microarray, Alexa647 label, 635/667 nm fluorescence (AID 1117)
Test parameters: alpha-BTX-A647 binding fluorescence, higher = more signal
Quick rule: composite z-score of at least 0.8 means 1, below that means -1.

Task item: Is composite z-score for CC(=O)NCCCC[C@@H]1NC(=O)[C@H]2C[C@@H](C(=O)NCCCCCNC(=O)CS)[C@@H](c3cccc(OCCO)c3)N2C1=O at or above 0.8?
Reply: -1

Task item: Say whether C=CCC(OC(C)=O)[C@@H]1[C@@H](N(Cc2cccc3ccccc23)C(=O)c2cccc3ccccc23)c2cc(OCCCO)ccc2N1C(=O)c1ccc2ccccc2c1 (some centres undefined) shows composite z-score of 0.8 or more.
Reply: -1

Task item: Reported composite z-score reaches at least 0.8 for CCOC(=O)C1=CCC(c2ccccc2)N(S(=O)(=O)c2ccc([N+](=O)[O-])cc2)C1 (centres undefined) ?
Reply: -1

Task item: Identify whether the reported composite z-score of the following molecule is 0.8 or greater: COc1ccc(NC(=O)O[C@H]2[C@@H]3OC(=O)[C@H](Cc4cccc(Br)c4)C/C=C/C[C@@H](Cc4cccc(Br)c4)C(=O)O[C@H]3[C@@H](OC)O[C@@H]2CO)cc1
Reply: -1

Task item: Dear colleague, could you confirm whether O=C1[C@@]23C=C(Br)[C@H](C[C@@H]2COC3)[C@@]12CO2 has composite z-score at or above 0.8?
Reply: -1

Task item: Decide: composite z-score of COc1cc(NN2C(C(O)C3CCCCC3)C=CC3C(=O)N(C)C(=O)C32)cc(OC)c1OC (centres undefined) >= 0.8?
Reply: 1

Task item: Would you say O=C(N1CCOCC1)[C@@]1(CCS(=O)(=O)c2ccccc2)N=C(c2ccc(OCCCO)cc2)O[C@H]1c1ccccc1 shows composite z-score at minimum 0.8?
Reply: 1

Task item: Reported composite z-score at or above 0.8? COc1ccc(C(O)C2C=CC3C(=O)N(c4ccccc4)C(=O)C3N2Nc2ccccc2)cc1 (centres undefined)
Reply: 1

***
Task item: State whether the measured composite z-score reaches 0.8, counting equality as reaching it, for COc1cc(CO)cc(I)c1O[C@H]1C=C(C(=O)NCCO)C[C@@H](NCC2CCCCC2)[C@@H]1O
Reply: -1

Task item: Is it the case that CC1(C)C(=O)C(c2ccccc2)=C2CN3C(=O)N(CCc4ccccc4)C(=O)C3(Cc3ccc(C(F)(F)F)cc3)C=C21 (centres undefined) has composite z-score reaching or exceeding 0.8?
Reply: -1

====

Test target: Fibroblast growth factor 2 (Homo sapiens) (UniProt P09038)
Sequence (P09038 whole entry, looked up): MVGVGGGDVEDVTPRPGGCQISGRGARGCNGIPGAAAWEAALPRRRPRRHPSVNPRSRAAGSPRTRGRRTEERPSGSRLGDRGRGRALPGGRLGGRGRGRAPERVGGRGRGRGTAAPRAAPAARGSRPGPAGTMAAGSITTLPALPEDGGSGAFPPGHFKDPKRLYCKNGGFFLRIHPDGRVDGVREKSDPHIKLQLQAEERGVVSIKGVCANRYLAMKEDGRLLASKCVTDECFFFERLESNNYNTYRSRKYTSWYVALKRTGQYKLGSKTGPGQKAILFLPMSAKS
Procedure text: FGF2 binders on small-molecule microarrays, primary screen, biochemical, small-molecule microarray, 635/667 nm fluorescence (AID 1133)
Test parameters: small-molecule microarray binding, FGF2, fluorescence 635/667; higher = more signal
In this section, each of the compounds is paired with its reported composite z-score.
# respond with the number and nothing more

Task item: Return composite z-score for the following compound: COc1cc(NN2C(C(O)c3ccc(I)cc3)C=CC3C(=O)N(c4ccccc4)C(=O)C32)cc(OC)c1OC (centres undefined)
Reply: 0.562

Continuing:
Task item: Specify reported composite z-score for the compound shown: COCC(=C=CC[C@@H](O)c1cccc(OCCO)c1)CCO
Reply: 0.377

Task item: Give the reported composite z-score for this compound. COc1ccc([Si](C)(C)[C@@H]2[C@@H](CCn3cc([C@H](O)c4ccccc4)nn3)O[C@]3(C(=O)N(c4ccccc4)c4ccccc43)[C@H]2C)cc1
Reply: 0.184

Task item: Give the reported composite z-score for this compound. CCCCC(=C=CC[C@H](O)c1ccc(OCCO)cc1)C[C@H](O)COCc1ccccc1
Reply: 0.501
